Target: 11-beta-hydroxysteroid dehydrogenase 1 (Mus musculus, UniProt P50172)
Sequence (P50172 whole entry): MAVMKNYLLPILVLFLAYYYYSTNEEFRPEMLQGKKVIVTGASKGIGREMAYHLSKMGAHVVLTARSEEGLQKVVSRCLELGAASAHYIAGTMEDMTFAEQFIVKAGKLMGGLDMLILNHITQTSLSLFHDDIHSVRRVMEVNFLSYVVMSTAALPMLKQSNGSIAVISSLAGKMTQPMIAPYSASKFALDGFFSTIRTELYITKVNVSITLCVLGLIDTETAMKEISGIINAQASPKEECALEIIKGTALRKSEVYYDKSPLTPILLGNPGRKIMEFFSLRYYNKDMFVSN
Test: Inhibition of mouse 11beta-HSD1 in expressed in HEK293 cells microsomal fractions incubated with NADPH and [3H]-cortisone by scintillation proximity assay
Consider the following compounds; for each one, report its pIC50.
Please report pIC50 as the negative decimal logarithm of the molar concentration, giving only the number.

*Q* Reported pIC50, compound `C=C(CC[C@@H](CO)[C@H]1CC[C@@]2(C)[C@@H]3CC[C@@H](C(=C)C)[C@@]4(CCC(=O)O)C[C@@]34CC[C@]12C)C(C)C` : ____
*A* 6.31

*Q* Look up pIC50: `C=C(CC[C@@H](COC(C)=O)[C@H]1CC[C@@]2(C)[C@@H]3CC[C@@H](C(=C)C)[C@@]4(CCC(=O)O)C[C@@]34CC[C@]12C)C(C)C`
*A* 5.55

----------
Molecular target: 11-beta-hydroxysteroid dehydrogenase 1 (Homo sapiens, UniProt P28845)
Sequence (P28845 whole entry): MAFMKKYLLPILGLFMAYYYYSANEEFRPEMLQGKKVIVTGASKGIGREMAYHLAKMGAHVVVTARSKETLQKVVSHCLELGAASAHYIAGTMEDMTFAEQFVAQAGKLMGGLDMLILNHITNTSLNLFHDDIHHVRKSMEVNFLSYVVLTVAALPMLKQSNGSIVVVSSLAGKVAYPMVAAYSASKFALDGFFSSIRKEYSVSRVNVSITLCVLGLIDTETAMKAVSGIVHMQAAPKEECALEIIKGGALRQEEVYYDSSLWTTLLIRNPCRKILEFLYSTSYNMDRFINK
Assay: Inhibition of human 11beta-HSD1 in expressed in HEK293 cells microsomal fractions incubated with NADPH and [3H]-cortisone by scintillation proximity assay
Parameter: IC50 (µM)
Write down the numeric answer in µM and omit the unit.

*Q* Requested read-out: IC50. Entry: `C=C(CC[C@@H](COC(C)=O)[C@H]1CC[C@@]2(C)[C@@H]3CC[C@@H](C(C)(C)O)[C@@]4(CCC(=O)O)C[C@@]34CC[C@]12C)C(C)C`
*A* 3.8

*Q* Consider the compound `C=C(CC[C@@H](COC(C)=O)[C@H]1CC[C@@]2(C)[C@@H]3CC[C@@H](C(=C)C)[C@@]4(CCC(=O)O)C[C@@]34CC[C@]12C)C(C)C` and give its measured IC50.
*A* 4.1

*Q* What measured IC50 goes with `C=C(CC[C@@H](CO)[C@H]1CC[C@@]2(C)[C@@H]3CC[C@@H](C(=C)C)[C@@]4(CCC(=O)O)C[C@@]34CC[C@]12C)C(C)C` ?
*A* 1.4

*Q* Fill in the blank: the reported IC50 of `C=C(CC[C@@H](C(=O)O)[C@H]1CC[C@@]2(C)[C@@H]3CC[C@H]4C(C)(C)C(=O)CC[C@@]45C[C@@]35CC[C@]12C)C(C)C` is ____.
*A* 2.3
